Data credit: patent US20250066347A1

- ASSAY_COMMENT: In vivo brain tissue distribution test after oral administration
- REPORTED_CONDITIONS: Hsd:ICR(CD-1R); Plasma (25 mg/kg, PO), mouse; read-out: t1/2, Mean (converted)
PROPERTY_MEASURED: half-life (h)
Entry rule: numbers only, all in h.

## Task Fill blank: measured half-life of the compound `CC(C)(C)c1ccc(-c2cc(/C=C3\SC(=O)NC3=O)ccn2)cc1` is ____.
## Result 3.08

----------
- ASSAY_COMMENT: In vivo PK test, drug concentration in plasma after oral or intravenous administration
- REPORTED_CONDITIONS: CRljOri:CD1(ICR), mouse, plasma, iv, 5 mg/kg, intravenous 5 mg/kg, 4 hr, read-out: Drug concentration in plasma, Individual
PROPERTY_MEASURED: concentration at 4 h (ng/mL)
Entry rule: numbers only, all in ng/mL.

## Task Fill blank: measured concentration at 4 h of the molecule `CC(C)(C)c1ccc(-c2cc(/C=C3\SC(=O)NC3=O)ccn2)cc1` is ____.
## Result 1050

----------
- ASSAY_COMMENT: In vivo PK test, drug concentration in plasma after oral or intravenous administration
- REPORTED_CONDITIONS: CRljOri:CD1(ICR); mouse, 25 mg/kg oral administration, plasma
- Experimental: • Experimental Drug: Compound 11 • Excipient: 10% DMSO, 75% PEG400, 15% saline 1.2. Experimental system • mouse, CRljOri:CD1(ICR), SPF 6 weeks old (7 weeks old at the time of administration) 1.3. […] 580 μl of acetonitrile (including internal standard) was added to 20 μl of plasma/tissue, and centrifugation was performed at 4° C. at 15,000 rpm for 5 minutes with vortexing. A supernatant obtained after the centrifugation was analyzed with LC-MS/MS. […]
PROPERTY_MEASURED: Cmax
# output: numeric value plus its unit

## Task Fill blank: measured Cmax of the molecule `CC(C)(C)c1ccc(-c2cc(/C=C3\SC(=O)NC3=O)ccn2)cc1` is ____.
## Result 5040 ng/mL

----------
- ASSAY_COMMENT: In vivo PK test, drug concentration in plasma after oral or intravenous administration
- REPORTED_CONDITIONS: CRljOri:CD1(ICR), mouse, plasma, iv, 5 mg/kg, intravenous 5 mg/kg, 24 hr, BQL = <1 ng/ml, ND = not detectable, read-out: Drug concentration in plasma, Individual
PROPERTY_MEASURED: concentration at 24 h (ng/mL)
Entry rule: numbers only, all in ng/mL.

## Task Fill blank: measured concentration at 24 h of the compound CC(C)(C)c1ccc(-c2cc(/C=C3\SC(=O)NC3=O)ccn2)cc1 [Compound 11] is ____.
## Result 1.9

----------
- ASSAY_COMMENT: In vivo PK test, drug concentration in plasma after oral or intravenous administration
- REPORTED_CONDITIONS: CRljOri:CD1(ICR), mouse, plasma, iv, 5 mg/kg, intravenous 5 mg/kg, 2 hr, read-out: Drug concentration in plasma, Average
- Procedure: • Experimental Drug: Compound 11 • Excipient: 10% DMSO, 75% PEG400, 15% saline 1.2. Experimental system • mouse, CRljOri:CD1(ICR), SPF 6 weeks old (7 weeks old at the time of administration) 1.3. […] 580 μl of acetonitrile (including internal standard) was added to 20 μl of plasma/tissue, and centrifugation was performed at 4° C. at 15,000 rpm for 5 minutes with vortexing. A supernatant obtained after the centrifugation was analyzed with LC-MS/MS. […]
PROPERTY_MEASURED: concentration at 2 hr
# output: numeric value plus its unit

## Task Fill blank: measured concentration at 2 hr of the molecule `CC(C)(C)c1ccc(-c2cc(/C=C3\SC(=O)NC3=O)ccn2)cc1` is ____.
## Result 1570 ng/mL

----------
- Tested on: SREBP
- ASSAY_COMMENT: Cell-based assay system using a 6xSRE reporter vector (copGFP intensity) in HOG-GSC-6xSRE-copGFP_HIGH cells
- Design: dose or concentration left out as unconfirmed
- REPORTED_CONDITIONS: copGFP intensity normalized to DMSO control = 1, 72 hours
PROPERTY_MEASURED: activity (%)
Entry rule: numbers only, all in %.

CC(C)(C)c1cccc(-c2cc(/C=C3\SC(=O)NC3=O)ccn2)c1 [Compound 18]    1.3
Cc1cc(C)cc(-c2cc(/C=C3\SC(=O)NC3=O)ccn2)c1 [Compound 19]    1.8
CC(C)(C)c1ccc(-c2cncc(/C=C3\SC(=O)NC3=O)c2)cc1 [Compound 28]    4.8
O=C1NC(=O)/C(=C/c2ccc(-c3ccc(OC(F)(F)F)cc3)nc2)S1 [Compound 25]    6.3
O=C1NC(=O)/C(=C/c2ccnc(-c3ccc(OCc4ccccc4)cc3)c2)S1 [Compound 15]    8.6

## Task State its activity on SREBP: Cc1ccc(-c2cc(/C=C3\SC(=O)NC3=O)ccn2)cc1 [Compound 10]
## Result 8.8

## Task Same again, this time with CC(C)(C)c1ccc(-c2cc(/C=C3\SC(=O)NC3=O)ccn2)cc1 [Compound 11]
## Result 4.6

## Task Same again, this time with O=C1NC(=O)/C(=C/c2ccnc(-c3ccc(C(F)(F)F)cc3)c2)S1 [Compound 12]
## Result 5.9

## Task Same again, this time with CC(C)(C)c1ccc(-c2ccnc(/C=C3\SC(=O)NC3=O)c2)cc1 [Compound 31]
## Result 4.5

## Task Same again, this time with O=C1NC(=O)/C(=C/c2ccnc(-c3ccc(OC(F)(F)F)cc3)c2)S1 [Compound 14]
## Result 1.7

## Task Same again, this time with CC(C)(C)c1ccc(-n2cccc2/C=C2\SC(=O)NC2=O)cc1 [Compound 3]
## Result 1

----------
- ASSAY_COMMENT: In vivo brain tissue distribution test after oral administration
- REPORTED_CONDITIONS: Hsd:ICR(CD-1R); Plasma (25 mg/kg, PO), mouse; read-out: AUClast, Mean
- Experimental: • Test drug: Compound 11 • Excipient: 20% hydroxypropyl-β-cyclodextrin aqueous solution to which 1% DMSO was added 2.2. Experimental system • Mouse, Hsd:ICR(CD-1R), SPF […] (7 weeks old at the time of administration) After obtaining the mouse, the mouse was quarantined and acclimatized for 2 weeks, and used in the experiment. An administration dose was 25 mg/kg. […] PK parameter was calculated with a Non-compartmental analysis model using a PKSolver2.0 software.
PROPERTY_MEASURED: AUC(0-t)
# output: numeric value plus its unit

## Task Fill blank: measured AUC(0-t) of the compound `CC(C)(C)c1ccc(-c2cc(/C=C3\SC(=O)NC3=O)ccn2)cc1` is ____.
## Result 177 µg·h/mL

----------
- ASSAY_COMMENT: In vivo PK test, drug concentration in plasma after oral or intravenous administration
- REPORTED_CONDITIONS: CRljOri:CD1(ICR), mouse, plasma, iv, 5 mg/kg, intravenous 5 mg/kg, 0.5 hr, read-out: Drug concentration in plasma, Average
PROPERTY_MEASURED: concentration at 0.5 h (ng/mL)
Entry rule: numbers only, all in ng/mL.

## Task Fill blank: measured concentration at 0.5 h of the molecule CC(C)(C)c1ccc(-c2cc(/C=C3\SC(=O)NC3=O)ccn2)cc1 [Compound 11] is ____.
## Result 2260

----------
- ASSAY_COMMENT: In vivo PK test, drug concentration in plasma after oral or intravenous administration
- REPORTED_CONDITIONS: CRljOri:CD1(ICR); mouse, 25 mg/kg oral administration, plasma
PROPERTY_MEASURED: half-life (h)
Entry rule: numbers only, all in h.

## Task Fill blank: measured half-life of the molecule CC(C)(C)c1ccc(-c2cc(/C=C3\SC(=O)NC3=O)ccn2)cc1 [Compound 11] is ____.
## Result 3.9

----------
- ASSAY_COMMENT: In vivo PK test, drug concentration in plasma after oral or intravenous administration
- REPORTED_CONDITIONS: CRljOri:CD1(ICR), mouse, plasma, iv, 5 mg/kg, intravenous 5 mg/kg, 0.08 hr, read-out: Drug concentration in plasma, Average
PROPERTY_MEASURED: concentration at 0.08 h (ng/mL)
Entry rule: numbers only, all in ng/mL.

## Task Fill blank: measured concentration at 0.08 h of the compound `CC(C)(C)c1ccc(-c2cc(/C=C3\SC(=O)NC3=O)ccn2)cc1` is ____.
## Result 2560

----------
- ASSAY_COMMENT: In vivo brain tissue distribution test after oral administration
- REPORTED_CONDITIONS: Hsd:ICR(CD-1R), mouse, brain/plasma, po, 25 mg/kg, PO, read-out: Brain-to-plasma ratio by concentration (brain/plasma), Max
- Description: • Test drug: Compound 11 • Excipient: 20% hydroxypropyl-β-cyclodextrin aqueous solution to which 1% DMSO was added 2.2. Experimental system • Mouse, Hsd:ICR(CD-1R), SPF […] (7 weeks old at the time of administration) After obtaining the mouse, the mouse was quarantined and acclimatized for 2 weeks, and used in the experiment. An administration dose was 25 mg/kg. […] PK parameter was calculated with a Non-compartmental analysis model using a PKSolver2.0 software.
PROPERTY_MEASURED: Kp
Quick one: just the number, no unit, thanks!

## Task Fill blank: measured Kp of the compound CC(C)(C)c1ccc(-c2cc(/C=C3\SC(=O)NC3=O)ccn2)cc1 [Compound 11] is ____.
## Result 0.777
